assay: AUC (0 to t) in Sprague-Dawley rat at 10 mg/kg,po measured upto 24 hrs by LC-MS analysis; type: ADME, organism-based; conditions: in vivo
Values of AUC(0-t) at 24 h strictly less than 10000 ng·h/mL map to Yes, and values of at least 10000 ng·h/mL map to No.

Determine whether this compound shows AUC(0-t) at 24 h lower than 10000 ng·h/mL (ties excluded): Cc1cc(-c2c[nH]c3ncc(-c4ccc(C5CCN(C(=O)CCOCCOCCOc6cccc7c6C(=O)N(C6CCC(=O)NC6=O)C7=O)CC5)cc4)nc23)ccc1C(=O)N(C)C (stereo not given)
Yes

Determine whether this compound shows AUC(0-t) at 24 h lower than 10000 ng·h/mL (ties excluded): Cc1cc(-c2c[nH]c3ncc(-c4ccc(N5CCN(c6cccc7c6C(=O)N(C6CCC(=O)NC6=O)C7=O)CC5)cc4)nc23)ccc1C(=O)N(C)C (stereo not given)
Yes

Determine whether this compound shows AUC(0-t) at 24 h lower than 10000 ng·h/mL (ties excluded): Cc1cc(-c2c[nH]c3ncc(-c4ccc(N5CCN(CC6CN(c7ccc8c(c7)C(=O)N(C7CCC(=O)NC7=O)C8=O)C6)CC5)cc4)nc23)ccc1C(=O)N(C)C (stereo not given)
No

Determine whether this compound shows AUC(0-t) at 24 h lower than 10000 ng·h/mL (ties excluded): Cc1cc(-c2c[nH]c3ncc(-c4ccc(C5CCN(C6CN(c7ccc8c(c7)C(=O)N(C7CCC(=O)NC7=O)C8=O)C6)CC5)cc4)nc23)ccc1C(=O)N(C)C (stereo not given)
No

Reference for the values: ChEMBL document CHEMBL5576124
